Assign inhibition to each entry below.
molecular target: Ribosomal protein S6 kinase beta-1 (Homo sapiens) (UniProt P23443); conditions: at 0.1 µM;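 further: reported value is the mean inhibition of p70S6K1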
Sequence (P23443 whole entry, looked up): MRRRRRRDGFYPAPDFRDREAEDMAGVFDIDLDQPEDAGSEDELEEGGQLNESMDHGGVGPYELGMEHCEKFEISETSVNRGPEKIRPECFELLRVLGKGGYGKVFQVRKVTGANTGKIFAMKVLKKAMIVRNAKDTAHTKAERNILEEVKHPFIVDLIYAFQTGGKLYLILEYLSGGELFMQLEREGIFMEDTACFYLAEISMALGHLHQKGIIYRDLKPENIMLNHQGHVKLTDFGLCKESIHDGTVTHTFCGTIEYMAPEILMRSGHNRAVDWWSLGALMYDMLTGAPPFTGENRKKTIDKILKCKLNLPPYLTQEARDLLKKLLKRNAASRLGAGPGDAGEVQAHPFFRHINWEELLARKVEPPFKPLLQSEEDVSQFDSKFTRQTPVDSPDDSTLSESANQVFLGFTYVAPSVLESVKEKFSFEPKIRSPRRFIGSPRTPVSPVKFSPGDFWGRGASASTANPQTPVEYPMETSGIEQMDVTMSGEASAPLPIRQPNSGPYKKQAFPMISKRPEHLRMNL
Numbers only, in %.

Known inhibition results, listed for orientation:
>  <cpd-smiles>
Nc1ncc(-c2cccc(S(N)(=O)=O)c2)c2scc(-c3ccc(F)c(Cl)c3)c12

>  <inhibition / %>
1.63

$$$$
>  <cpd-smiles>
CCc1nn2ncccc2c1-c1ccnc(NC2CC2)n1

>  <inhibition / %>
1.12

$$$$
>  <cpd-smiles>
COc1ccc(-c2cc(-c3c[nH]nc3-c3ccccn3)ccn2)cc1

>  <inhibition / %>
2.32

$$$$

Batch of 5 compounds: report inhibition for each.
1. c1ccc(COc2ccc(Nc3ncnc4ccc(-c5ccco5)cc34)cc2)cc1
2. COc1cc(/C=N/Nc2ncnc3[nH]ncc23)ccc1O
3. CN1CCC(n2cnc(-c3ccc(F)cc3)c2-c2ccnc(N)n2)CC1
4. CC(C)(CO)CNC(=O)c1ccc2c(c1)/C(=N/Nc1ccc(S(N)(=O)=O)cc1)C(=O)N2
5. N#Cc1c(NC(=O)c2ccc(F)cc2)sc2c1CCCC2

Marked response:
0.5
3.45
-0.73
-0.13
-0.29
